Ref: paper PMC6928743

Target: Nav1.7 (Homo sapiens)
Sequence (Q15858 whole entry): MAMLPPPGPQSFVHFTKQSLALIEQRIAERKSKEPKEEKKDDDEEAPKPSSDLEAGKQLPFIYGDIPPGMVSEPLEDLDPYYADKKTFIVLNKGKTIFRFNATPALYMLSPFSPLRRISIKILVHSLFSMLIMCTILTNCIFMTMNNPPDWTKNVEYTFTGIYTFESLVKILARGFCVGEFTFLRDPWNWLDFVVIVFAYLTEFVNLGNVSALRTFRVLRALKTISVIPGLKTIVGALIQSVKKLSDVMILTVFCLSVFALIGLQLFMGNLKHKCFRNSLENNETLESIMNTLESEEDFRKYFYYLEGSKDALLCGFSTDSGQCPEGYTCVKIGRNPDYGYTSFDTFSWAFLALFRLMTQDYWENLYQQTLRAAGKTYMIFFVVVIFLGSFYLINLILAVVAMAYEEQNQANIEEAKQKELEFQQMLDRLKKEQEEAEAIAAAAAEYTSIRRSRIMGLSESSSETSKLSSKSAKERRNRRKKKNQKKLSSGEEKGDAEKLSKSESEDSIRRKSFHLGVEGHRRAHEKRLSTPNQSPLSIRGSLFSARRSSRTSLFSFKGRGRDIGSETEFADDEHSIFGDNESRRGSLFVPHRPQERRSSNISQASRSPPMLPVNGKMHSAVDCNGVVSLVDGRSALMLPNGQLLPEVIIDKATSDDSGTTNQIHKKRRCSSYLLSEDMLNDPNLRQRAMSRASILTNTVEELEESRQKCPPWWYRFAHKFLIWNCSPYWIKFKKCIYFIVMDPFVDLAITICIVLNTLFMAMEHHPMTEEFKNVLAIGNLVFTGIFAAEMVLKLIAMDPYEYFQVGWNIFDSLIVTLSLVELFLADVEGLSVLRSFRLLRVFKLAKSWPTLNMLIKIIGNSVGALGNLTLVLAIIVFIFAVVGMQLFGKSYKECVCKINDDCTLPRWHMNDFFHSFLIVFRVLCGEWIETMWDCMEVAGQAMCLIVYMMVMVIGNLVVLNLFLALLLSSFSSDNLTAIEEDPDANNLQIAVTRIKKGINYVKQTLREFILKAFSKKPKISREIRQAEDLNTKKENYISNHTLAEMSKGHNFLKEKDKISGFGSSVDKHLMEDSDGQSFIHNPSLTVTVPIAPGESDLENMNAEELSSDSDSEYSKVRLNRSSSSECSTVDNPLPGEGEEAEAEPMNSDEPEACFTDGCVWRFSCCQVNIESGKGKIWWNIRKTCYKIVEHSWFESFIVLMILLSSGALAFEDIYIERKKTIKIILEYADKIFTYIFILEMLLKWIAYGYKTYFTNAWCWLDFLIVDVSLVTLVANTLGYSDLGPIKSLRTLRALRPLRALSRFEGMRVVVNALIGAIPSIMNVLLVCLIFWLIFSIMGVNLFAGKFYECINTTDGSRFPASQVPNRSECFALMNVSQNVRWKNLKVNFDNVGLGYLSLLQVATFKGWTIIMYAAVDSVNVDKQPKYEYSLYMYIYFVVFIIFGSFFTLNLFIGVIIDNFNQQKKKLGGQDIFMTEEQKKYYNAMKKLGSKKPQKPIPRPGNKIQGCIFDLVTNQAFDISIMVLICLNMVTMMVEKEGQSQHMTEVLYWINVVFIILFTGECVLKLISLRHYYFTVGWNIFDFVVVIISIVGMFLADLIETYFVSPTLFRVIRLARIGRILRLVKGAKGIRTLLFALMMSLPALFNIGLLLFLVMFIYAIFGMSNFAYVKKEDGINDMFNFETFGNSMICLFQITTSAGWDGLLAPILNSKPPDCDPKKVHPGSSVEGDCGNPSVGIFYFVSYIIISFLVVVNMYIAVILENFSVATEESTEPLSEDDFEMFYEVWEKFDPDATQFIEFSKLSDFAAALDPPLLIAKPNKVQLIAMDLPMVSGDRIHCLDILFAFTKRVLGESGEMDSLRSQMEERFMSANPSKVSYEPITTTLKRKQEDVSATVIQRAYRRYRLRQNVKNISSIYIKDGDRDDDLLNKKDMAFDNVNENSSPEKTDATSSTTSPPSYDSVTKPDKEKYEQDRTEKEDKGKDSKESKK
Assay: whole-cell voltage-clamp in CHO cells stably expressing hNav1.[…]
property-name: IC50 (µM)
Please give a number only; it is taken to be in µM.

Exercise: Field request: IC50 | item: COc1cc(-c2coc3cc(O)cc(O)c3c2=O)ccc1O [3’-O-methylorobol]
Solution: 3.46
